tested on: GAK; details: concentration: 1 μM, replicates: in singlicate; n = 1
Kindly state %Inh for each of the entries shown.
Reply numerically in %, unit not repeated.

### Prompt Enter %Inh (test system GAK) for CCS(=O)(=O)c1ccc(OC)c(Nc2ncc(-c3ccc(F)cc3)o2)c1.Cl
### Response 0

### Prompt Enter %Inh (test system GAK) for COc1cc(Nc2nccc(N3CCC(NC(=O)C4COc5ccccc5O4)C3)n2)cc(OC)c1OC (centres unmarked)
### Response 37

### Prompt Enter %Inh (test system GAK) for COc1ccc(Nc2nccc(N3CCC(NS(=O)(=O)c4ccc(NC(C)=O)cc4)C3)n2)cc1 (centres unmarked)
### Response 9

### Prompt Enter %Inh (test system GAK) for Cn1c(=O)c(F)c(Nc2ccc(I)cc2F)c2c(=O)n(OC[C@H](O)CO)cnc21
### Response 11

### Prompt Enter %Inh (test system GAK) for CCn1c(-c2ccoc2)nc2cnccc21
### Response 0

### Prompt Enter %Inh (test system GAK) for COC(=O)c1c(-c2ccccc2)c2cc(C)ccc2c(=O)n1Cc1ccccc1
### Response 0

### Prompt Enter %Inh (test system GAK) for COc1ccc(-n2cnc3c(N)ncnc32)cc1
### Response 27

### Prompt Enter %Inh (test system GAK) for Cc1ccccc1COc1cc(-n2cnc3cc(Cl)ccc32)sc1C(N)=O
### Response 1

----------
Kindly state %Inh for each of the entries shown.
test system: AXL; conditions: concentration: 1 μM, replicates: in singlicate; n = 1

### Prompt Identify measured %Inh associated with O=C(Nc1n[nH]c2cc(-c3ccccc3F)ccc12)C1CC1 [SB-733371]
### Response 16%

### Prompt Identify measured %Inh associated with COc1cccc(C2=C(Nc3cccc(C(=O)O)c3)C(=O)NC2=O)c1 [SB-390770]
### Response 0%

### Prompt Identify measured %Inh associated with COc1cc2nccc(Nc3cccc(Oc4ccccc4)c3)c2cc1OC.Cl [GW284543]
### Response 0%

### Prompt Identify measured %Inh associated with O=C(Nc1n[nH]c2nc(-c3ccccc3)c(Br)cc12)C1CC1 [SB-708998]
### Response 0%

### Prompt Identify measured %Inh associated with Nc1nc(-c2ccccc2F)c(-c2ccnc3ccccc23)s1 [GW560459]
### Response 0%

### Prompt Identify measured %Inh associated with CCC(=O)c1c(-c2ccccc2)c2cc(Cl)ccc2c(=O)n1Cc1cc(S(C)(=O)=O)n(CC(N)=O)n1
### Response 2%

### Prompt Identify measured %Inh associated with COC(=O)c1c(-c2ccccc2)c2cc(Br)ccc2c(=O)n1Cc1ccc(NC(=O)CCC(=O)O)cc1
### Response 0%

### Prompt Identify measured %Inh associated with Cc1cc(Nc2nc(-c3cccc(C)n3)nc3ccccc23)ccn1 [GW872411]
### Response 0%

### Prompt Identify measured %Inh associated with CCc1ccc(-c2ccc3c(c2)-c2nn(C)cc2S(=O)(=O)N3C)cc1
### Response 8%

----------
tested on: CTK; construct: gene MATK; settings: concentration: 1 μM, replicates: in singlicate; n = 1
REPORTED_METRIC: %Inh (%)
Reply numerically in %, unit not repeated.

### Prompt Identify measured %Inh associated with O=C(Nc1n[nH]c2cc(-c3ccccc3F)ccc12)C1CC1
### Response 3

### Prompt Identify measured %Inh associated with COc1ccc(CNC(=O)NC2CCN(c3ccnc(Nc4ccc(F)cc4)n3)C2)cc1 (stereo not drawn)
### Response 0

### Prompt Identify measured %Inh associated with CN1C(=O)C(Nc2cc(Cl)c(O)c(Cl)c2)=C(c2ccc(Cl)cc2)C1=O
### Response 52

### Prompt Identify measured %Inh associated with O=C(Nc1n[nH]c2nc(-c3ccccc3)c(Cl)cc12)C1CC1
### Response 27

### Prompt Identify measured %Inh associated with COc1ccc(-c2cc3c(C)nc(N)nc3n([C@H]3CC[C@H](O)CC3)c2=O)cn1
### Response 0

### Prompt Identify measured %Inh associated with COc1cc2nccc(Nc3ccc(OCc4ccc(NC(C)=O)cc4)cc3)c2cc1OC.Cl
### Response 20

### Prompt Identify measured %Inh associated with Nc1nc(-c2ccccc2F)c(-c2ccnc3ccccc23)s1
### Response 0

### Prompt Identify measured %Inh associated with Nc1nc(N)c2nc(-c3ccccc3)[nH]c2n1
### Response 24

### Prompt Identify measured %Inh associated with FC(F)(F)c1ccc(-c2ncn(CCCN3CCOCC3)c2-c2ccncc2)cc1
### Response 0

----------
system: RSK4(Kin.Dom.1-N-terminal); construct: gene RPS6KA6; settings: concentration: 1 μM, replicates: in singlicate; n = 1
REPORTED_METRIC: %Inh
Answer with the number, then the unit.

### Prompt Identify measured %Inh associated with CCc1nc(-c2cccc(C)c2)c(-c2ccncc2)s1
### Response 0%

### Prompt Identify measured %Inh associated with Cc1c(Cn2c(C)nn3c(=O)cc(N4CCO[C@H](C)C4)nc23)cccc1C(F)(F)F [GSK2373690]
### Response 0%

### Prompt Identify measured %Inh associated with COc1ccc(CNC(=O)NC2CCN(c3ccnc(Nc4ccc(F)cc4)n3)C2)cc1 (centres unmarked) [GSK1379706]
### Response 0%

### Prompt Identify measured %Inh associated with COc1ccc(Nc2nccc(N3CCC(NS(=O)(=O)c4ccc(NC(C)=O)cc4)C3)n2)cc1 (centres unmarked) [GSK1379729]
### Response 0%

### Prompt Identify measured %Inh associated with Nc1nc(N)c2nc(-c3ccccc3)[nH]c2n1 [SKF-12778]
### Response 15%

----------
system: CAMKK1; details: concentration: 1 μM, replicates: in singlicate; n = 1
REPORTED_METRIC: %Inh (%)
Reply numerically in %, unit not repeated.

### Prompt Identify measured %Inh associated with COc1ccc(-n2cnc3c(N)ncnc32)cc1 [SKF-97236]
### Response 0

### Prompt Identify measured %Inh associated with Cc1nn2c(=O)cc(N3CCOCC3)nc2n1Cc1cccc(Cl)c1Cl [GSK2342769]
### Response 2

### Prompt Identify measured %Inh associated with Cc1cccc(-c2nc(Nc3ccc4c(cnn4C)c3)c3ccccc3n2)n1 [GW876731]
### Response 2

### Prompt Identify measured %Inh associated with C[C@@H]1CC[C@H](C(=O)NC2CCCCC2)CN1c1cc(-c2ccc3c(N)n[nH]c3c2)nc(N)n1 [GSK2291363]
### Response 24

### Prompt Identify measured %Inh associated with COc1cc(Nc2ccnc3ccc(C(F)(F)F)cc23)cc(OC)c1OC [GW577382]
### Response 15

----------
test system: MYLK; settings: concentration: 1 μM, replicates: in singlicate; n = 1
Kindly state %Inh for each of the entries shown.
Answer with the number, then the unit.

### Prompt Enter %Inh (test system MYLK) for Cc1ccc(Oc2ccc(Nc3ncnc4cc[nH]c34)cc2C)cn1
### Response 38%

### Prompt Enter %Inh (test system MYLK) for CCC(=O)c1c(-c2ccccc2)c2cc(Cl)ccc2c(=O)n1Cc1cc(S(C)(=O)=O)n(CCC(C)(C)O)n1
### Response 5%

### Prompt Enter %Inh (test system MYLK) for O=C(NCCNc1ccnc(Nc2ccc(F)cc2)n1)Nc1ccc2c(c1)OCO2 [GSK1379882]
### Response 23%

### Prompt Enter %Inh (test system MYLK) for Cc1cccc(-c2nc(Nc3ccc4c(cnn4C)c3)c3ccccc3n2)n1 [GW876731]
### Response 0%

### Prompt Enter %Inh (test system MYLK) for COc1cc(Nc2ccnc3ccc(C(F)(F)F)cc23)cc(OC)c1OC [GW577382]
### Response 0%

----------
pKd data for PIK3CD follow.
// pKd is dimensionless: -log10 of concentration (M)

### Prompt Identify measured pKd associated with Cc1nn2c(=O)cc(N3CCOCC3)nc2n1Cc1cccc(Cl)c1Cl
### Response 6.70

### Prompt Identify measured pKd associated with COc1ccc(-c2cc3c(C)nc(N)nc3n([C@H]3CC[C@H](O)CC3)c2=O)cn1
### Response 9.31

----------
test system: AKT1; conditions: concentration: 1 μM, replicates: in singlicate; n = 1
REPORTED_METRIC: %Inh (%)
Reply numerically in %, unit not repeated.

### Prompt Identify measured %Inh associated with COc1ccc(-c2cc3c(C)nc(N)nc3n([C@H]3CC[C@H](OCCO)CC3)c2=O)cn1
### Response 6

### Prompt Identify measured %Inh associated with Nc1nccc2scc(-c3ccc4c(c3)CCN4C(=O)Cc3ccccc3)c12 [GSK2576924]
### Response 0

### Prompt Identify measured %Inh associated with Cc1nn2c(=O)cc(N3CCOCC3)nc2n1Cc1cccc(Cl)c1Cl [GSK2342769]
### Response 0

### Prompt Identify measured %Inh associated with CCC(=O)c1c(-c2ccccc2)c2cc(Cl)ccc2c(=O)n1Cc1cc(S(C)(=O)=O)n(CC(N)=O)n1
### Response 0

### Prompt Identify measured %Inh associated with CC(C)(C)c1ccc(C(=O)Nc2cn3cc(-c4ccccc4)ccc3n2)cc1
### Response 0

### Prompt Identify measured %Inh associated with CCC(=O)c1c(-c2ccccc2)c2cc(Cl)ccc2c(=O)n1Cc1cc(S(C)(=O)=O)n(CCC(C)(C)O)n1
### Response 0

### Prompt Identify measured %Inh associated with COc1cc2ncn(-c3cc(OCc4ccncc4)c(C(N)=O)s3)c2cc1OC [GSK336313]
### Response 0

### Prompt Identify measured %Inh associated with COc1cccc(C2=C(Nc3cccc(C(=O)O)c3)C(=O)NC2=O)c1 [SB-390770]
### Response 2

### Prompt Identify measured %Inh associated with CCn1c(-c2ccoc2)nc2cnccc21 [SB-733887]
### Response 0
